The molecules listed here are annotated with their Co.
System: L1210
assay comment: Lethal concentration required to reduce cloning efficiency of L1210 cell line to a factor of 0.37 after 24 hour exposure
Assay type: cell-based
experimental parameters: mouse, l1210, 24 h
Number only, in µM; omit the unit.

So what's the measured Co for this one? Cc1c2cc[n+](CCNC(=O)CC3(C)CC[C@H]4[C@@H]5CCc6cc(O)ccc6[C@H]5CC[C@@]43C)cc2c(C)c2c1[nH]c1ccccc12.[Br-] (some centres undefined) 0.15

// switching to the query molecule
So what's the measured Co for this one? COc1ccc2[nH]c3c(C)c4cc[n+](CC(=O)N(CCCCCN)CCOc5ccc(/C(=C(/Cl)c6ccccc6)c6ccccc6)cc5)cc4c(C)c3c2c1.[Cl-] 9

Values were extracted from ChEMBL document CHEMBL1123012.
